# procedure details: Inhibition of p37 in Vaccinia virus Copenhagen infected in African green monkey Vero cells assessed as reduction in viral reproduction incubated for 4 days by neutral red dye based colorimetric analysis
Each entry below carries its recorded IC50.

{"columns": ["compound", "IC50"],
 "data": [
  ["O=C(NNC1C2CC3CC1CC(Cl)(C3)C2)c1ccc(C(F)(F)F)cc1 (stereo not drawn)", "3.52 µM"],
  ["CCC12CC3CC(C1)CC(NC(=O)c1ccc(C(F)(F)F)cc1)(C3)C2", "4.1 µM"],
  ["O=C(NNC(=O)C12CC3CC(CC(C3)C1)C2)c1ccc(C(F)(F)F)cc1", "1.07 µM"],
  ["CCC12CC3CC(C1)CC(NNC(=O)c1ccc(C(F)(F)F)cc1)(C3)C2", "1.66 µM"],
  ["CC12CC3CC(C)(C1)CC(C(=O)NNC(=O)c1ccc(C(F)(F)F)cc1)(C3)C2", "30.9 µM"],
  ["O=C(NNC(=O)c1ccc(C(F)(F)F)cc1)NC12CC3CC(CC(C3)C1)C2", "36.3 µM"],
  ["CCC12CC3CC(C1)CC(C(=O)NNC(=O)c1ccc(C(F)(F)F)cc1)(C3)C2", "12.5 µM"],
  ["CC12CC3CC(C1)CC(NC(=O)c1ccc(C(F)(F)F)cc1)(C3)C2", "8.98 µM"],
  ["CN(C(=O)c1ccc(C(F)(F)F)cc1)C12CC3CC(CC(C3)C1)C2", "4.85 µM"],
  ["O=C(NNC1C2CC3CC(C2)CC1C3)c1ccc(C(F)(F)F)cc1 (stereo not drawn)", "2.8 µM"],
  ["O=C(NC12CC3CC(CC(C3)C1)C2)c1ccc(C(F)(F)F)cc1", "0.133 µM"],
  ["O=C(NCC12CC3CC(CC(C3)C1)C2)c1ccc(C(F)(F)F)cc1", "0.27 µM"],
  ["O=C(NC1C2CC3CC(C2)CC1C3)c1ccc(C(F)(F)F)cc1 (stereo not drawn)", "0.216 µM"],
  ["O=C(NN1C(=O)[C@@H]2[C@@H]3C=C[C@@H]([C@H]4C[C@@H]34)[C@@H]2C1=O)c1ccc(C(F)(F)F)cc1", "0.0027 µM"],
  ["O=C(NN=C1C2CC3CC(C2)CC1C3)c1ccc(C(F)(F)F)cc1", "198 µM"],
  ["CC(NNC(=O)c1ccc(C(F)(F)F)cc1)C12CC3CC(CC(C3)C1)C2 (stereo not drawn)", "0.515 µM"],
  ["O=C(NC1C2CC3CC(C2)CC1C3)c1ccc(Br)cc1 (stereo not drawn)", "3.06 µM"],
  ["O=C(NCC12CC3CC(CC(C3)C1)C2)c1ccc(Br)cc1", "8.3 µM"]
]}
